Test system: HOP-92 NSCLC
Method Summary: NCI-60 one-dose screen, 48 h (100 = growth as untreated, 0 = no growth, -100 = all killed)
Cond: 10 µM unless noted
Compounds without any hit were thinned out: in the full panel of roughly 83,000, 20% have a hit.
Decide using growth: a value greater than or equal to 60% is Condition met, a smaller one is Condition not met.

> print(dat)
                               smiles.entry           category
1  COc1cc(O)c2c(c1)[C@H]1O[C@@H]1C[C@H](O)[C@H](O)C(=O)/C=C\C[C@H](C)OC2=O  Condition not met
2  CCCCCCNC(=O)Oc1ccc(/C(=C(/C)c2ccc(OC)cc2)c2ccc(OCCN3CCCC3)cc2)cc1      Condition met
3  O=C(O)c1ccc(-n2cc(CNc3ccc(Cl)cc3)c(-c3ccc(F)cc3)n2)cc1      Condition met
4  COc1cc(/C=N/n2cnc3oc(-c4ccccc4)cc3c2=N)cc(CN2CCOCC2)c1O      Condition met
5  CNC(=O)c1cc(Oc2ccc3nc(NC(=O)c4cc(C)cc(C)c4)sc3c2)ccn1  Condition not met

----------
Test system: OVCAR-4 ovarian
Method Summary: NCI-60 one-dose screen, 48 h
Cond: 10 µM unless noted
Experimental: Growth inhibition of the OVCAR-4 human tumor cell line is measured as a screen for anti-cancer activity. Cells are grown in 96 well plates and exposed to the test compound for 48 hours. Compounds are tested at a single concentration, which is 10^-5 M for most compounds. The reported endpoint is percent growth (GI% or GIPRCNT), where numbers from 0 - 100% represent growth inhibition, and numbers from -100% - 0 represent cell death. For example, a value of 40 represents 60% growth inhibition. […]
This is part of a sample that, as a whole, favours compounds with a hit. Of some 83,000 tested, about 20% had one in any assay. The source made the active and inactive calls. How the source made its calls: active means growth percent below 10; inactive means the rest.
Outcomes: T = active, F = inactive

Compound	Category
CC(C)=CCc1c(O)c(CC=C(C)C)c2c(c1O)C(=O)C1=C[C@@H]3C[C@H]4C(C)(C)O[C@@](C/C=C(\C)C(=O)O)(C3=O)[C@@]14O2	F
C=C(C)[C@@H]1CC[C@]2(COS(C)(=O)=O)CC[C@]3(C)[C@H](CC[C@@H]4[C@@]5(C)CCCNC(C)(C)[C@@H]5CC[C@]43C)[C@@H]12	F
c1ccc(-c2n(Cc3ccc4ccccc4c3)c3c4ccccc4c4ccccc4c3[n+]2Cc2ccc3ccccc3c2)cc1	T
CCC(C)[C@H]1OC(=O)[C@H](C(C)C)N(C)C(=O)[C@@H](C(C)C)OC(=O)[C@H](C(C)C)N(C)C(=O)[C@@H](C(C)CC)OC(=O)[C@H](C(C)C)N(C)C1=O (some centres not stated)	F
COc1cc(/C=C/C(=O)c2ccc(NC(=O)COc3cccc4cccnc34)cc2)cc(OC)c1OC	F
O=C1c2cc(Br)ccc2-n2c1nc1cc(Br)ccc1c2=O	F
Oc1ccccc1-c1nnc(SCc2ccc(O)c3ncccc23)o1	F

----------
Reported growth is given for each of the following molecules.
Tested on: ACHN renal
Method Summary: NCI-60 one-dose screen, 48 h (100 = growth as untreated, 0 = no growth, -100 = all killed)
Cond: 10 µM unless noted
Description: Growth inhibition of the ACHN human tumor cell line is measured as a screen for anti-cancer activity. Cells are grown in 96 well plates and exposed to the test compound for 48 hours. Compounds are tested at a single concentration, which is 10^-5 M for most compounds. The reported endpoint is percent growth (GI% or GIPRCNT), where numbers from 0 - 100% represent growth inhibition, and numbers from -100% - 0 represent cell death. For example, a value of 40 represents 60% growth inhibition. […]
About 83,000 compounds went through this panel and 20% of them were active in at least one assay; those are over-represented in the sample as a whole.
Measured Attribute: growth (%)

> print(dat)
                                   molecule  measure.unit  obs.value
1  Cc1ccc(-c2csc(N/N=C/c3nc4ccccc4n3C3CC3)n2)cc1             %       1.34
2  CS(=O)c1nccc(-c2c(-c3ccc(F)c(OCc4ccccc4)c3)nc3sccn23)n1 (stereo not given)             %       82.6
3  O=C(Nc1ccccc1)Nc1nc2ccc([N+](=O)[O-])cc2s1             %        3.7
4  Oc1ccc(CSc2nnc(-c3ccccc3)n2-c2ccccc2)c2cccnc12             %       6.88
5  O=S(=O)(NC1CC2CCC1C2)c1ccc2c(c1)C(=NO)c1cc(S(=O)(=O)NC3CC4CCC3C4)ccc1-2 (stereo not given)             %      -95.4

----------
Tested on: MALME-3M melanoma
Method Summary: NCI-60 one-dose screen, 48 h
Cond: 10 µM unless noted
Compounds without any hit were thinned out: in the full panel of roughly 83,000, 20% have a hit. Calls of active or inactive are those of the source. How the source made its calls: active means growth percent below 10; inactive means the rest.
Outcome codes: active, inactive

Molecule	Category
N#Cc1ccc(S(=O)(=O)Nc2ccc(-c3cnc(N)[nH]3)cc2)cc1	inactive
O=c1c2c(O)cccc2oc2c3c(cc(O)c12)O[C@H]1OC=C[C@@H]31	inactive
CNC(=O)c1cc(N2CCc3cc(NC(=O)Nc4ccc(Cl)c(Cl)c4)ccc32)ccn1	inactive
Cc1cc2nc(C(Cl)Cl)nc(-c3ccco3)n2n1	inactive
N#Cc1c(NC(=O)c2ccccc2C(F)(F)F)sc2c1CCC(=O)C2	active
CN1C(=O)N(C)C2Nn3c(s/c(=C\c4ccccn4)c3=O)=NC21 (stereo unspecified)	inactive
CS(=O)c1nccc(-c2c(-c3ccc(F)c(OCCc4ccccc4)c3)nc3sccn23)n1 (stereo unspecified)	inactive
COC(=O)c1nc(-c2ccc(C)cc2)oc1S(=O)(=O)N1CCN(c2oc(-c3ccccc3)nc2C#N)CC1	inactive
Cc1cc(-c2ccc3nc(N)sc3c2)nc2ccc3[nH]ncc3c12	inactive
CCN(CC)c1ccc2cc(C(=O)NCCOCCOCCOCCn3cc(CCC(=O)Nc4ccc(C(=O)c5ccc(NC(=O)OC(C)(C)C)cc5)cc4)nn3)c(=O)oc2c1	inactive
C#C[C@]1(O)CC[C@H]2[C@@H]3CC=C4c5sc(Nc6cccc(Cl)n6)nc5CC[C@]4(C)[C@H]3CC[C@@]21C	active
Brc1cccc(/C=N/Nc2nc(N/N=C/c3cccc(Br)c3)nc(N3CCOCC3)n2)c1	active
CCCCCCNC(=O)Oc1ccc(/C(=C(\C)c2ccc(OC)cc2)c2ccc(OCCN(C)C)cc2)cc1	active
COc1ccc(Cn2cc3c(c2-c2ccccc2)CCCc2cnoc2-3)cc1[N+](=O)[O-]	inactive
IP(CCCSc1n(Cc2ccc3ccccc3c2)c(-c2ccccc2)c(-c2ccccc2)[n+]1Cc1ccc2ccccc2c1)(c1ccccc1)(c1ccccc1)c1ccccc1	inactive
CCN1C(=O)N(CC)C2SC(N/N=C/c3ccc(OC)cc3)=NC21 (stereo unspecified)	inactive
O=S(=O)(NCCCNc1nccc(-n2cnc3ccccc32)n1)c1ccc(F)cc1	inactive
COc1ccc(/C=C/C(=O)c2nnn(-c3ccc(C(=O)O)cc3)c2C)cc1OC	inactive
CCCCCCCCCC[C@@H](C)[C@@H]1CC(=O)N[C@H]([C@@H](C)O)C(=O)N[C@@H](C)C(=O)N[C@H](C)C(=O)N[C@@H](CCC(N)=O)C(=O)N[C@H](Cc2ccc(O)cc2)C(=O)N[C@@H](C(C)CC)C(=O)O1 (stereo partly specified)	inactive
COC(=O)c1c(C(=O)OC)c2n(CC(=O)Nc3cccc4cccnc34)c3ccccc3n2c1C(=O)c1ccc(C)cc1	inactive
COc1cc(O)c2c(c1)/C=C/C[C@H](O)[C@H](O)C(=O)/C=C\C[C@H](C)OC2=O	active
CS(=O)(=O)c1nccc(-c2c(-c3ccc(F)c(OCCc4ccc(F)cc4)c3)nc3sccn23)n1	inactive
CCOC(=O)c1c(NC(=O)c2cccc(C(F)(F)F)c2)sc2c(CN3CCN(C)CC3)c(O)ccc12	active
Cc1cc(=O)n2nc(-c3c[nH]c4ccccc34)sc2n1	inactive
COc1ccc(-c2nnc(SCc3ccc(O)c4ncccc34)n2-c2ccccc2)cc1	inactive
Cc1ccccc1NC1CC(=O)N(c2ccc(Cl)cc2Cl)C1=O (stereo unspecified)	inactive
CCN(CC)Cc1c(-c2cccc(OC(F)(F)F)c2)[nH]c2ccc(N3CCCC3)cc2c1=O	inactive
Nc1ccc(-c2nnc(SCc3ccc(O)c4ncccc34)n2-c2ccccc2)cc1	active
C=CCn1c(SCC(=O)Nc2cccc(C(=O)/C=C/c3ccccc3Cl)c2)nc2ccccc2c1=O	inactive
C#C[C@]1(O)CC[C@H]2[C@@H]3CC=C4c5sc(Nc6nc(C)cc(OC)n6)nc5CC[C@]4(C)[C@H]3CC[C@@]21C	inactive
O=C(NNc1nc2cc(F)c(F)cc2n2cccc12)c1ccncn1	inactive
CCOC(=O)C1=C(C)Nc2nnc(Nc3ccccc3)n2C1c1ccccc1 (stereo unspecified)	inactive
CS(=O)c1nccc(-c2c(-c3ccc(F)c(OCc4ccccc4)c3)nc3sccn23)n1 (stereo unspecified)	inactive
COc1cc(/C=C2\SC(=O)NC2=O)ccc1OCC(=O)Nc1ccc(C(=O)/C=C/c2cc3ccccc3nc2Cl)cc1	inactive
C(=C(\C1=NCCN1)n1cnc2ccccc21)/c1cccc2ccccc12	inactive
CN1CCN(Cc2ccc(NC(=O)c3cncc(C#Cc4cnc5ccc(O[C@H]6CCOC6)nn45)c3)cc2C(F)(F)F)CC1	active
